Molecular target: T1, IGFBP-1 (human, UniProt P08833 26-259)
T1 construct: Biotinylated in the ELISA assays; also called rhIGFBP-1
T1 sequence (looked up): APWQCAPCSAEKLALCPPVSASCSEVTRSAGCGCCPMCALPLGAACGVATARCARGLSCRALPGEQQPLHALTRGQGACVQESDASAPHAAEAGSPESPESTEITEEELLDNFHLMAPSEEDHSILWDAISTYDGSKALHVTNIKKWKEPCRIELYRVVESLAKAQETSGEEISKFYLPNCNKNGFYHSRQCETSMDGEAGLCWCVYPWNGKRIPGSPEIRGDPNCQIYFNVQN
Experiment: BIAcore competition: peptide inhibits IGFBP-1 binding to IGF-II; ratio to bp1-01 (wt)
Positions of bridges follow the written chain, without caps; N, C: chain ends. No end group written: not given here.
ASSAY_READOUT: IC50 (mut)/IC50 (wt) (ratio)
Number only, in ratio; omit the unit.

Lab note: measured IC50 (mut)/IC50 (wt) of CRAGPLAWLCEKYFG (Ala-scan variant of bp1-01) [bp1-01 Q7A] was 0.6

What the record says about CRAGPLQWLCEAYFG (Ala-scan variant of bp1-01) [bp1-01 K12A] : IC50 (mut)/IC50 (wt) is 5.3

Memo: CRAGPLQWLCEKYAG (Ala-scan variant of bp1-01) [bp1-01 F14A] , reported IC50 (mut)/IC50 (wt): 5.8

Value of IC50 (mut)/IC50 (wt) reported for the binder CRAGPAQWLCEKYFG (Ala-scan variant of bp1-01) [bp1-01 L6A] is 34.7

Just so you know, measured IC50 (mut)/IC50 (wt) for CRAGPLQWLCEKAFG (Ala-scan variant of bp1-01) [bp1-01 Y13A] came out at 14.6

// field: IC50 (mut)/IC50 (wt); key: CRAGPLQWLCAKYFG (Ala-scan variant of bp1-01) [bp1-01 E11A] ; value = 2.4

Sure, the documented IC50 (mut)/IC50 (wt) for CRAGPLQALCEKYFG (Ala-scan variant of bp1-01) [bp1-01 W8A] is 6.4

Record CAAGPLQWLCEKYFG (disulfide 1-10 (inferred), Ala-scan variant of bp1-01; termini and disulfide not restated) [bp1-01 R2A] . Reported IC50 (mut)/IC50 (wt): 0.9

Sample CRAGPLQWACEKYFG (Ala-scan variant of bp1-01) [bp1-01 L9A] ; IC50 (mut)/IC50 (wt) observed: 29.7
